system: SN12C; test: NCI tumour cell line growth inhibition, 48 h
Active and inactive are the calls of the source. Cut-off read from the data, not from the text of the source: active = GI50 up to about 1.1 µM and inactive = higher.
Classes used: True (active), False (inactive)

[
  {
    "COMPOUND": "C=C(C)C(=O)/N=C(\\N)NC#N",
    "CLASSIFICATION": "False"
  },
  {
    "COMPOUND": "Cc1cc(C)c(-c2noc(-c3ccc(Cl)cc3)c2C2=NCCCN2)c(C)c1",
    "CLASSIFICATION": "False"
  },
  {
    "COMPOUND": "O=C(O)COCC(=O)N(CCOCCN(Cc1ccccc1)C(=O)COCC(=O)O)Cc1ccccc1",
    "CLASSIFICATION": "False"
  },
  {
    "COMPOUND": "Cc1cc(O)c2c(=O)c3c(O)cc(O)c4c5c(O)cc(O)c6c(=O)c7c(O)cc(C)c8c1c2c(c34)c(c78)c65",
    "CLASSIFICATION": "False"
  },
  {
    "COMPOUND": "O=C(O)Cc1ccccc1",
    "CLASSIFICATION": "False"
  },
  {
    "COMPOUND": "COc1cc(C2c3cc4c(cc3[C@@H](Nc3ccccc3)C3COC[C@H]23)OCO4)cc(OC)c1O (some centres undefined)",
    "CLASSIFICATION": "False"
  },
  {
    "COMPOUND": "NC1CC(=O)c2c(Br)csc21 (centres undefined)",
    "CLASSIFICATION": "False"
  },
  {
    "COMPOUND": "Cc1ccc(NC(=O)CSC(N)=O)cc1C",
    "CLASSIFICATION": "False"
  },
  {
    "COMPOUND": "CC(C)(C)CC(C)(C)c1ccc(O)c(C[N+](C)(C)[O-])c1",
    "CLASSIFICATION": "False"
  },
  {
    "COMPOUND": "CN1C(=O)C2(Cc3cn(C45CC67SSC(CO)(C(=O)N6C4Nc4ccccc45)N(C)C7=O)c4ccccc34)SSC1(CO)C(=O)N2C (centres undefined)",
    "CLASSIFICATION": "True"
  },
  {
    "COMPOUND": "COc1cc2c(c(N)c1OC)C(=O)/C(=C/c1cc(C)c(O)c(C)c1)C2",
    "CLASSIFICATION": "True"
  },
  {
    "COMPOUND": "C=C(C)C1Cc2c(c3ccccc3n(C)c2=O)O1 (centres undefined)",
    "CLASSIFICATION": "False"
  },
  {
    "COMPOUND": "CCc1ccc(/C=C/C(=O)C2CN(CC)CCC2(O)/C=C/c2ccc(CC)cc2)cc1 (centres undefined)",
    "CLASSIFICATION": "False"
  },
  {
    "COMPOUND": "CC(C)[Si](OC/C(=C/COC(C)(C)C)[C@H]1CC=C(C(=O)c2ccccc2N2CN(C)C(=O)N(C)C2)C1)(C(C)C)C(C)C",
    "CLASSIFICATION": "False"
  },
  {
    "COMPOUND": "COC(=O)/C(=N\\NC(N)=S)C(C#N)c1ccccc1 (centres undefined)",
    "CLASSIFICATION": "False"
  },
  {
    "COMPOUND": "CN(C)CCCNc1ccc2c(=O)n(CCN(C)C)c(=O)n3c4ccccc4c(=O)c1c23",
    "CLASSIFICATION": "True"
  },
  {
    "COMPOUND": "O=C(O)CCNS(=O)(=O)c1ccc(NC(=O)c2ccccc2)cc1",
    "CLASSIFICATION": "False"
  },
  {
    "COMPOUND": "Cc1cnc(Cl)nc1C(C#N)c1nc2ccccc2n1C (centres undefined)",
    "CLASSIFICATION": "False"
  },
  {
    "COMPOUND": "Brc1ccc2c(c1)[C@H]1CCc3c([nH]c4ccccc34)[C@H]1N2",
    "CLASSIFICATION": "False"
  }
]

----------
system: HCT-116; assay: NCI tumour cell line growth inhibition, 48 h
Activity calls are given as the source filed them. No stated cut-off is given here; in the data, active = GI50 up to about 1.1 µM and inactive = higher.
Classes used: label 1 = active, label 0 = inactive

[
  {
    "MOLECULE": "CCc1ccc(/C=C/C(=O)C2CN(CC)CCC2(O)/C=C/c2ccc(CC)cc2)cc1 (stereo not given)",
    "CLASSIFICATION": "label 0"
  },
  {
    "MOLECULE": "CCCCCC(/C=N/N)C(O)(C(F)(F)F)C(F)(F)F (stereo not given)",
    "CLASSIFICATION": "label 0"
  },
  {
    "MOLECULE": "CCN(CC)CC(O)c1ccc2ccc3ccccc3c2c1 (stereo not given)",
    "CLASSIFICATION": "label 0"
  },
  {
    "MOLECULE": "COC(=O)[C@@]12OC[C@]34[C@H]([C@@H](O)[C@@H]1O)[C@@]1(C)CC(=O)C(O)=C(C)[C@@H]1C[C@H]3OC(=O)[C@H](OC(=O)/C=C(\\C)C(C)C)[C@@H]24 [BRUCEANTIN]",
    "CLASSIFICATION": "label 1"
  },
  {
    "MOLECULE": "COC(=O)c1c(C)cccc1/C=C1\\Cc2cc(C)cc(C)c2C1=O",
    "CLASSIFICATION": "label 0"
  },
  {
    "MOLECULE": "CCc1cccc(C(C)C)c1NC(=O)C(=O)Nn1c(S)nc2ccccc2c1=O",
    "CLASSIFICATION": "label 0"
  },
  {
    "MOLECULE": "C/C=C(\\N=C=S)C(=O)OC1C(COC(C)=O)OC([C@]2(O)CC(=O)C(N)=C(C(=O)O)C2=O)C(O)C1OC1CC(OC)C(O)([C@@H](C)OC(=O)[C@@H](C)CC)C(C)O1 (stereo not given in full)",
    "CLASSIFICATION": "label 0"
  },
  {
    "MOLECULE": "O=[N+]([O-])c1c(O)c2nonc2c2nn(-c3ccccc3)nc12",
    "CLASSIFICATION": "label 0"
  },
  {
    "MOLECULE": "COc1cccc(C(=O)N2CCc3ccccc32)c1OC",
    "CLASSIFICATION": "label 0"
  },
  {
    "MOLECULE": "Cc1sc2nc3n(sc4nc5sc(C)c(C)c5c(=O)n43)c(=O)c2c1C",
    "CLASSIFICATION": "label 0"
  },
  {
    "MOLECULE": "N#CC(c1nc2ccccc2s1)c1nc(Cl)ncc1Br (stereo not given)",
    "CLASSIFICATION": "label 0"
  },
  {
    "MOLECULE": "Cc1cnc(Cl)nc1C(C#N)c1nc2ccccc2n1C (stereo not given)",
    "CLASSIFICATION": "label 0"
  },
  {
    "MOLECULE": "Cc1cccc2c(N)c3cccc(C(=O)NCCN4CCOCC4)c3nc12",
    "CLASSIFICATION": "label 1"
  },
  {
    "MOLECULE": "Nc1c(C(=O)N/N=C/c2ccccc2)sc(=S)n1-c1ccccc1",
    "CLASSIFICATION": "label 0"
  },
  {
    "MOLECULE": "O=C1c2ccccc2C(=O)c2c1ccc(C(=O)O)c2-c1ccc2ccccc2c1",
    "CLASSIFICATION": "label 0"
  },
  {
    "MOLECULE": "Cc1ccc(/N=C2\\N=C(N3CC(C)OC(C)C3)c3ccccc32)cc1 (stereo not given)",
    "CLASSIFICATION": "label 0"
  },
  {
    "MOLECULE": "COc1cc(C2c3cc4c(cc3[C@@H](Nc3ccccc3)C3COC[C@H]23)OCO4)cc(OC)c1O (stereo not given in full)",
    "CLASSIFICATION": "label 0"
  },
  {
    "MOLECULE": "C=C1C[C@H](O)[C@H](Br)C(C)(C)C12CCC(C)(Cl)C(Br)C2 (stereo not given in full)",
    "CLASSIFICATION": "label 0"
  },
  {
    "MOLECULE": "O=C(/C=C/c1ccccc1)CCC1C(=O)c2ccccc2C1=O",
    "CLASSIFICATION": "label 0"
  },
  {
    "MOLECULE": "COc1ccc(Nc2nc3ccc(C(F)(F)F)cc3nc2-c2ccccc2)cc1OC",
    "CLASSIFICATION": "label 0"
  }
]

----------
system: UO-31; assay: NCI tumour cell line growth inhibition, 48 h
Active and inactive are the calls of the source. Cut-off read from the data, not from the text of the source: active = GI50 up to about 1.1 µM and inactive = higher.
Classes used: active, inactive

[
  {
    "MOLECULE": "Cn1cnc([N+](=O)[O-])c1Sc1n[nH]c(-c2ccc(Cl)cc2)n1",
    "CLASSIFICATION": "inactive"
  },
  {
    "MOLECULE": "OC(c1cc(C23CC4CC(CC(C4)C2)C3)nc2c(Cl)cc(Cl)cc12)C1CCCCN1 (stereo not drawn)",
    "CLASSIFICATION": "active"
  },
  {
    "MOLECULE": "O=C1c2cccnc2C(=O)c2c1nc1ccccc1c2-c1cncc(-c2c3c(nc4ccccc24)C(=O)c2cccnc2C3=O)c1",
    "CLASSIFICATION": "active"
  },
  {
    "MOLECULE": "CC(O)c1cc2c(s1)C(=O)c1c(C(C)O)csc1C2=O (stereo not drawn)",
    "CLASSIFICATION": "active"
  },
  {
    "MOLECULE": "O=S(=O)(c1cnccc1N1CCN(CCO)CC1)N1CCCC1",
    "CLASSIFICATION": "inactive"
  },
  {
    "MOLECULE": "O=C(Nc1ncc([N+](=O)[O-])s1)c1ccccc1O [TIZOXANIDE]",
    "CLASSIFICATION": "inactive"
  },
  {
    "MOLECULE": "O=C1CSC(c2cc3cc(Br)ccc3nc2Cl)N1c1ccc(F)c(Cl)c1 (stereo not drawn)",
    "CLASSIFICATION": "inactive"
  },
  {
    "MOLECULE": "CC(C)(C)c1ccc(-c2nnc(-c3cc(C#N)cc(-c4nnc(-c5ccc(C(C)(C)C)cc5)o4)c3)o2)cc1",
    "CLASSIFICATION": "inactive"
  },
  {
    "MOLECULE": "COc1ccc(-c2c(N)[n+]([O-])c3cc(C)c(C)cc3[n+]2[O-])cc1OC",
    "CLASSIFICATION": "inactive"
  },
  {
    "MOLECULE": "C[N+]1([O-])[C@H]2CC(OC(=O)[C@H](CO)c3ccccc3)C[C@H]1[C@H]1O[C@H]12 (stereo partly drawn)",
    "CLASSIFICATION": "inactive"
  },
  {
    "MOLECULE": "O=C1C2CC=CCC2C(=O)C12CCc1ccccc12 (stereo not drawn)",
    "CLASSIFICATION": "inactive"
  },
  {
    "MOLECULE": "OCC1OC2c3ccccc3COC2C1OCc1ccccc1 (stereo not drawn)",
    "CLASSIFICATION": "inactive"
  },
  {
    "MOLECULE": "c1csc(-c2cc(-c3ccsc3)c(-c3cccs3)s2)c1",
    "CLASSIFICATION": "inactive"
  },
  {
    "MOLECULE": "CCOC(=O)NC(=O)c1cn(C(CC)COC(=O)NCCCCCCNC(=O)OCC(CC)n2cc(C(=O)NC(=O)OCC)c(=O)[nH]c2=O)c(=O)[nH]c1=O (stereo not drawn)",
    "CLASSIFICATION": "inactive"
  },
  {
    "MOLECULE": "Fc1ccc2c(c1)cc1ccc3cccc4ccc2c1c34",
    "CLASSIFICATION": "inactive"
  },
  {
    "MOLECULE": "C=C(C)C(=O)/N=C(\\N)NC#N",
    "CLASSIFICATION": "inactive"
  },
  {
    "MOLECULE": "CC12CO[C@@](C)(CC(S(=O)(=O)c3ccccc3)C1)O2 (stereo partly drawn)",
    "CLASSIFICATION": "inactive"
  },
  {
    "MOLECULE": "[O-][n+]1c(-c2ccccc2)oc2ccccc21",
    "CLASSIFICATION": "inactive"
  }
]
